FYI, the data here is from PubChem BioAssay AID1159580.

Assay method text: chemical genetic growth profiling, strain panel (AID 1159580);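 note: tested at 20 µM; growth read once vehicle control cultures reached saturation at 30 °C; 1 = growth at the plate median or of vehicle wells; lower values mean less growth of the strain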
Conditions used: S. cerevisiae deletion strains, growth OD, locus YOR231W, strain MKK1, active compounds read low
Hit rate of the full screen: of about 5,500 compounds, about 2,000 (36%) were called active. Another 18% or so got no clear call; they are omitted. The list shows a part of the results.
Property label: normalized growth
API note: the answer field is a bare number with no unit suffix.

See these solved cases before continuing.
O=S(=O)(Nc1cc(C(F)(F)F)ccc1F)c1cc(C(F)(F)F)ccc1Cl = 0.817
O=C1/C(=C/c2c(F)cccc2Cl)Cc2ccccc21 = 0.92
Oc1ccc(/C=C/c2cc(O)cc(O)c2)cc1 = 0.98
CN(C)CCc1c[nH]c2ccc(Cn3cncn3)cc12 = 0.928
N=C(N)SCc1nc(-c2ccc(Cl)cc2)no1 = 1.03
COc1ccccc1NC(=O)Nc1nn(C)c2cccc(OC)c12 = 0.734
O=c1ccn([C@@H]2O[C@H](COP(=O)(O)OP(=O)(O)OP(=O)(O)O)[C@@H](O)[C@H]2O)c(=O)[nH]1 = 1.07
CN(Cc1cnc2nc(N)nc(N)c2n1)c1ccc(C(=O)NC(CCC(=O)O)C(=O)O)cc1 (configuration not stated) = 0.193

Lab book: normalized growth of "CCn1cc(C(=O)O)c(=O)c2ccc(C)nc21" noted as 0.888

Lab book: normalized growth of CCN(CC)CCOC(=O)C(Cc1cccc2ccccc12)CC1CCCO1 (configuration not stated) noted as 0.978

Lab book: normalized growth of "O=C(/C=C/c1ccc(O)c(O)c1)O[C@@H]1C[C@](O)(C(=O)O)C[C@@H](O)[C@H]1O" noted as 1.02

Lab book: normalized growth of "O=C1CN(/N=C\c2ccc([N+](=O)[O-])o2)C(=O)N1" noted as 0.889

Lab book: normalized growth of "C[C@@H]1C[C@@H]([C@H](O)CC2CC(=O)NC(=O)C2)C(=O)[C@@H](C)C1" noted as 0.111

Lab book: normalized growth of "Cc1nc(C(F)(F)F)c(C(=O)O/N=C(/N)c2ccc(Cl)cc2)s1" noted as 0.831
